Method Description: DRUGMATRIX: GABAA, Chloride Channel, TBOB radioligand binding (ligand: [3H] TBOB)
Format: cell membranes, Rattus norvegicus, Wistar, Cerebral cortex, Membrane
Conditions: Not Active = under 50% inhibition at 10 µM
Property Measured: Ki

Molecule: CSc1ccc(/C=C2/C(C)=C(CC(=O)O)c3cc(F)ccc32)cc1 [SULINDAC SULFIDE]
Property Measured: Ki
Obs Value: Not Active
--
Molecule: Cc1ccc2cc3c(ccc4ccccc43)c3c2c1CC3
Property Measured: Ki
Obs Value: Not Active
--
Molecule: CC(O)CO (stereo not given)
Property Measured: Ki
Obs Value: Not Active
--
Molecule: C[C@H](CCC(=O)O)[C@H]1CC[C@H]2[C@@H]3[C@H](O)C[C@@H]4C[C@H](O)CC[C@]4(C)[C@H]3C[C@H](O)[C@]12C
Property Measured: Ki
Obs Value: Not Active
--
Molecule: CC(C)CN(C[C@@H](O)[C@H](Cc1ccccc1)NC(=O)O[C@H]1CCOC1)S(=O)(=O)c1ccc(N)cc1
Property Measured: Ki
Obs Value: Not Active
--
Molecule: C[C@]12CC[C@@H]3c4ccc(O)cc4CC[C@H]3[C@@H]1CCC2=O
Property Measured: Ki
Obs Value: Not Active
--
Molecule: CC(C)N1CCN(c2ccc(OCC3COC(Cn4cncn4)(c4ccc(Cl)cc4Cl)O3)cc2)CC1 (stereo not given)
Property Measured: Ki
Obs Value: Not Active
--
Molecule: Cc1ccc(N(CC2=NCCN2)c2cccc(O)c2)cc1
Property Measured: Ki
Obs Value: Not Active
--
Molecule: CC1=C2C(=CO[C@H](C)[C@H]2C)C(O)=C(C(=O)O)C1=O
Property Measured: Ki
Obs Value: Not Active
--
Molecule: COc1cc2c3cc1Oc1cc(ccc1O)C[C@@H]1c4c(cc(OC)c(O)c4Oc4ccc(cc4)C[C@@H]3N(C)CC2)CC[N+]1(C)C.[Cl-]
Property Measured: Ki
Obs Value: Not Active
--
Molecule: Cc1onc(O)c1CC(N)C(=O)O (racemic) [(R,S)-AMPA]
Property Measured: Ki
Obs Value: Not Active
--
Molecule: O=C1CC[C@@H](N2C(=O)c3ccccc3C2=O)C(=O)N1
Property Measured: Ki
Obs Value: Not Active
--
Molecule: CN(C)CCCN1c2ccccc2Sc2ccc(Cl)cc21
Property Measured: Ki
Obs Value: Not Active
--
Molecule: N[C@@H](Cc1ccc(N(CCCl)CCCl)cc1)C(=O)O
Property Measured: Ki
Obs Value: Not Active
--
Molecule: CC1Cc2ccccc2N1NC(=O)c1ccc(Cl)c(S(N)(=O)=O)c1 (stereo not given) [INDAPAMIDE]
Property Measured: Ki
Obs Value: Not Active
--
Molecule: Cn1ccnc1S
Property Measured: Ki
Obs Value: Not Active
--
Molecule: C[C@H](CS)C(=O)N1CCC[C@H]1C(=O)O
Property Measured: Ki
Obs Value: Not Active
--
Molecule: CC[C@@]1(O)C[C@H](O[C@H]2C[C@H](N(C)C)[C@H](O[C@H]3C[C@H](O)[C@H](O[C@H]4CCC(=O)[C@H](C)O4)[C@H](C)O3)[C@H](C)O2)c2c(cc3c(c2O)C(=O)c2c(O)cccc2C3=O)[C@H]1C(=O)OC
Property Measured: Ki
Obs Value: Not Active
--
Molecule: O=C(O)CCCc1ccc(N(CCCl)CCCl)cc1
Property Measured: Ki
Obs Value: Not Active
--
Molecule: C=CCC1(C(C)CCC)C(=O)NC(=O)NC1=O (stereo not given)
Property Measured: Ki
Obs Value: Not Active
--
Molecule: COc1cc2nc(N3CCN(C(=O)C4COc5ccccc5O4)CC3)nc(N)c2cc1OC (stereo not given)
Property Measured: Ki
Obs Value: Not Active
--
Molecule: NC1=NC(=O)C(c2ccccc2)O1 (stereo not given)
Property Measured: Ki
Obs Value: Not Active
--
Molecule: CNCCc1ccccn1
Property Measured: Ki
Obs Value: Not Active
--
Molecule: Nc1c2c(nc3ccccc13)CCCC2
Property Measured: Ki
Obs Value: Not Active
--
Molecule: CO[C@H]1/C=C/O[C@@]2(C)Oc3c(C)c(O)c4c(O)c(c(/C=N/N5CCN(C)CC5)c(O)c4c3C2=O)NC(=O)/C(C)=C\C=C\[C@H](C)[C@H](O)[C@@H](C)[C@@H](O)[C@@H](C)[C@H](OC(C)=O)[C@@H]1C
Property Measured: Ki
Obs Value: Not Active
--
Molecule: N[C@@H]1[C@H]2CN(c3nc4c(cc3F)c(=O)c(C(=O)O)cn4-c3ccc(F)cc3F)C[C@@H]12
Property Measured: Ki
Obs Value: Not Active
--
Molecule: c1ccc2c(c1)c1cccc3ccc4cccc2c4c31 [BENZO[E]PYRENE]
Property Measured: Ki
Obs Value: Not Active
--
Molecule: C[C@](N)(Cc1ccc(O)c(O)c1)C(=O)O
Property Measured: Ki
Obs Value: Not Active
--
Molecule: CCC1(c2ccc(N)cc2)CCC(=O)NC1=O (stereo not given) [AMINOGLUTETHIMIDE]
Property Measured: Ki
Obs Value: Not Active
--
Molecule: CCCOc1ccccc1-c1nc2nn[nH]c2c(=O)[nH]1
Property Measured: Ki
Obs Value: Not Active
--
Molecule: COCCc1ccc(OCC(O)CNC(C)C)cc1 (stereo not given)
Property Measured: Ki
Obs Value: Not Active
--
Molecule: CC1(C)S[C@@H]2[C@H](NC(=O)Cc3ccccc3)C(=O)N2[C@H]1C(=O)O
Property Measured: Ki
Obs Value: Not Active
--
Molecule: CCOC(=O)N1CCC(=C2c3ccc(Cl)cc3CCc3cccnc32)CC1
Property Measured: Ki
Obs Value: Not Active
--
Molecule: COc1ccc(C[C@H]2NC[C@H](O)[C@H]2OC(C)=O)cc1
Property Measured: Ki
Obs Value: Not Active
--
Molecule: O=NN(CCCl)C(=O)NC1CCCCC1
Property Measured: Ki
Obs Value: Not Active
